experiment: Stability tests of analytes in rat plasma QC samples; format: in vitro ADME; settings: rat plasma, nominal conc. 400 nM
I would appreciate it if you labelled entries Criterion met when Extracted samples at 8 °C for 18 h, Mean±SD is 400 nM or higher, otherwise Criterion not met.

The following compounds have reported results that may help.
[
  {
    "Compound": "CC(C)=CCC[C@](C)(O[C@@H]1O[C@H](CO[C@@H]2OC[C@H](O)[C@H](O)[C@H]2O)[C@@H](O)[C@H](O)[C@H]1O)[C@H]1CC[C@]2(C)[C@@H]1[C@H](O)C[C@@H]1[C@@]3(C)CC[C@H](O[C@@H]4O[C@H](CO)[C@@H](O)[C@H](O)[C@H]4O[C@@H]4O[C@H](CO)[C@@H](O)[C@H](O)[C@H]4O)C(C)(C)[C@@H]3CC[C@]12C [Compound D4, Ginsenoside Rb2]",
    "Qualitative Label": "Criterion met"
  },
  {
    "Compound": "CC(C)=CCC[C@](C)(O)[C@H]1CC[C@]2(C)[C@@H]1[C@H](O)C[C@@H]1[C@@]3(C)CC[C@H](O)C(C)(C)[C@@H]3[C@@H](O[C@@H]3O[C@H](CO)[C@@H](O)[C@H](O)[C@H]3O)C[C@]12C [Compound C1, Ginsenoside Rh1]",
    "Qualitative Label": "Criterion met"
  },
  {
    "Compound": "CC(C)=CCC[C@](C)(O[C@@H]1O[C@H](CO[C@@H]2O[C@@H](CO)[C@H](O)[C@H]2O)[C@@H](O)[C@H](O)[C@H]1O)[C@H]1CC[C@]2(C)[C@@H]1[C@H](O)C[C@@H]1[C@@]3(C)CC[C@H](O[C@@H]4O[C@H](CO)[C@@H](O)[C@H](O)[C@H]4O[C@@H]4O[C@H](CO)[C@@H](O)[C@H](O)[C@H]4O)C(C)(C)[C@@H]3CC[C@]12C [Compound D3, Ginsenoside Rc]",
    "Qualitative Label": "Criterion met"
  }
]

Turning now to a further compound:
INPUT: Hi, just wondering whether CC(C)(O)[C@@H]1CC[C@](C)([C@H]2[C@@H](O)C[C@@]3(C)[C@@H]4C[C@H](O[C@@H]5O[C@H](CO)[C@@H](O)[C@H](O)[C@H]5O)[C@H]5C(C)(C)[C@@H](O[C@@H]6OC[C@@H](O)[C@H](O)[C@H]6O)CC[C@@]56C[C@@]46CC[C@]23C)O1 [Compound B2, Astragaloside IV] shows Extracted samples at 8 °C for 18 h, Mean±SD of 400 nM or higher.
OUTPUT: Criterion not met

---

experiment: Plasma pharmacokinetics in rats after a 30-min intravenous infusion of Kang-Ai injection; type: in vivo, Sprague–Dawley rats; conditions: male, Sprague-Dawley, plasma; rat; 30-min iv infusion of Kang-Ai injection 6 mL/kg; Table 1 unit; read-out: VSS
Experimental Endpoint: Vd (L)
Give a bare numeral; the unit L is implied.

[
  {
    "Compound": "CC(C)=CCC[C@](C)(O[C@@H]1O[C@H](CO[C@@H]2OC[C@H](O)[C@H](O)[C@H]2O)[C@@H](O)[C@H](O)[C@H]1O)[C@H]1CC[C@]2(C)[C@@H]1[C@H](O)C[C@@H]1[C@@]3(C)CC[C@H](O[C@@H]4O[C@H](CO)[C@@H](O)[C@H](O)[C@H]4O[C@@H]4O[C@H](CO)[C@@H](O)[C@H](O)[C@H]4O)C(C)(C)[C@@H]3CC[C@]12C [Compound D4, Ginsenoside Rb2]",
    "Units Text": "L",
    "Test Result": 0.0396
  },
  {
    "Compound": "O=C1CCC[C@@H]2[C@H]3CCCN4CCC[C@@H](CN12)[C@@H]34",
    "Units Text": "L",
    "Test Result": 0.00985
  }
]

Below: the item to evaluate.
Vd measured on CC(C)=CCC[C@](C)(O[C@@H]1O[C@H](CO)[C@@H](O)[C@H](O)[C@H]1O)[C@H]1CC[C@]2(C)[C@@H]1[C@H](O)C[C@@H]1[C@@]3(C)CC[C@H](O)C(C)(C)[C@@H]3[C@@H](O[C@@H]3O[C@H](CO)[C@@H](O)[C@H](O)[C@H]3O[C@@H]3O[C@@H](C)[C@H](O)[C@@H](O)[C@H]3O)C[C@]12C [Compound C9, Ginsenoside Re] = 0.101

---

experiment: Plasma pharmacokinetics in rats after a 30-min intravenous infusion of Kang-Ai injection; assay type: in vivo, Sprague–Dawley rats; conditions: male, Sprague-Dawley, rat, in vivo, iv
Experimental Endpoint: Cmax (nM)
Give a bare numeral; the unit nM is implied.

Reference set (2 entries):
[
  {
    "Molecule": "O=C1CCC[C@@H]2[C@H]3CCC[N+]4([O-])CCC[C@@H](CN12)[C@@H]34 (stereo partly drawn)",
    "Test Result": 423000
  },
  {
    "Molecule": "CC(C)=CCC[C@](C)(O)[C@H]1CC[C@]2(C)[C@@H]1[C@H](O)C[C@@H]1[C@@]3(C)CC[C@H](O)C(C)(C)[C@@H]3[C@@H](O[C@@H]3O[C@H](CO)[C@@H](O)[C@H](O)[C@H]3O[C@@H]3O[C@H](CO)[C@@H](O)[C@H](O)[C@H]3O)C[C@]12C [Compound C7, Ginsenoside Rf]",
    "Test Result": 943
  }
]

Below: the item to evaluate.
Cmax measured on CC(C)=CCC[C@](C)(O)[C@H]1CC[C@]2(C)[C@@H]1[C@H](O)C[C@@H]1[C@@]3(C)CC[C@H](O)C(C)(C)[C@@H]3[C@@H](O[C@@H]3O[C@H](CO)[C@@H](O)[C@H](O)[C@H]3O[C@@H]3O[C@@H](C)[C@H](O)[C@@H](O)[C@H]3O)C[C@]12C [Compound C5, Ginsenoside Rg2] = 231

---

biological target: UGT1A9 (Homo sapiens); test: Inhibition of expressed UGT1A9 (probe propofol); type: in vitro ADME; conditions: recombinant isozyme; mean ± SD of triplicate; unit not given (IC50 classes in μM); read-out: IC50 towards UGT1A9
Sequence (O60656 26-530): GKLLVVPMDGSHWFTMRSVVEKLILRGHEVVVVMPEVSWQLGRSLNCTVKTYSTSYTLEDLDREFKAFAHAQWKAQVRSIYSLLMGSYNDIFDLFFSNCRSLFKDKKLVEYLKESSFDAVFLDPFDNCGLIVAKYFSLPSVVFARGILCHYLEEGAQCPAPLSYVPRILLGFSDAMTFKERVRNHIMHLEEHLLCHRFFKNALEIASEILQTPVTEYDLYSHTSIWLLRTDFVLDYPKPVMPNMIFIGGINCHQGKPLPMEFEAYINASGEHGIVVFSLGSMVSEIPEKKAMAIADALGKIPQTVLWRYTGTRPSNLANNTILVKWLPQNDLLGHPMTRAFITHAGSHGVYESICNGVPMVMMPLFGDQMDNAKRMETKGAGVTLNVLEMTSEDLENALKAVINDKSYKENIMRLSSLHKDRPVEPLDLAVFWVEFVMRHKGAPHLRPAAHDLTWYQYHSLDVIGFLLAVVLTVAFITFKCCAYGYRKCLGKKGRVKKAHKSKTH
As shown below, each of these compounds has a reported IC50 value.

IC50 measured on CC(C)=CCC[C@](C)(O[C@@H]1O[C@H](CO[C@@H]2O[C@@H](CO)[C@H](O)[C@H]2O)[C@@H](O)[C@H](O)[C@H]1O)[C@H]1CC[C@]2(C)[C@@H]1[C@H](O)C[C@@H]1[C@@]3(C)CC[C@H](O[C@@H]4O[C@H](CO)[C@@H](O)[C@H](O)[C@H]4O[C@@H]4O[C@H](CO)[C@@H](O)[C@H](O)[C@H]4O)C(C)(C)[C@@H]3CC[C@]12C [Compound D3, Ginsenoside Rc] = 29 µM

IC50 measured on CC(C)=CCC[C@](C)(O[C@@H]1O[C@H](CO[C@@H]2O[C@H](CO)[C@@H](O)[C@H](O)[C@H]2O)[C@@H](O)[C@H](O)[C@H]1O)[C@H]1CC[C@]2(C)[C@@H]1[C@H](O)C[C@@H]1[C@@]3(C)CC[C@H](O[C@@H]4O[C@H](CO)[C@@H](O)[C@H](O)[C@H]4O[C@@H]4O[C@H](CO)[C@@H](O)[C@H](O)[C@H]4O)C(C)(C)[C@@H]3CC[C@]12C [Compound D5, Ginsenoside Rb1] = > 100 µM

IC50 measured on CC(C)=CCC[C@](C)(O[C@@H]1O[C@H](CO)[C@@H](O)[C@H](O)[C@H]1O)[C@H]1CC[C@]2(C)[C@@H]1[C@H](O)C[C@@H]1[C@@]3(C)CC[C@H](O)C(C)(C)[C@@H]3[C@@H](O[C@@H]3O[C@H](CO)[C@@H](O)[C@H](O)[C@H]3O)C[C@]12C [Compound C6, Ginsenoside Rg1] = > 100 µM

IC50 measured on CC(C)=CCC[C@](C)(O[C@@H]1O[C@H](CO)[C@@H](O)[C@H](O)[C@H]1O)[C@H]1CC[C@]2(C)[C@@H]1[C@H](O)C[C@@H]1[C@@]3(C)CC[C@H](O)C(C)(C)[C@@H]3[C@@H](O[C@@H]3O[C@H](CO)[C@@H](O)[C@H](O)[C@H]3O[C@@H]3O[C@@H](C)[C@H](O)[C@@H](O)[C@H]3O)C[C@]12C [Compound C9, Ginsenoside Re] = > 100 µM

IC50 measured on CC(C)(O)[C@@H]1CC[C@](C)([C@H]2[C@@H](O)C[C@@]3(C)[C@@H]4C[C@H](O[C@@H]5O[C@H](CO)[C@@H](O)[C@H](O)[C@H]5O)[C@H]5C(C)(C)[C@@H](O[C@@H]6OC[C@@H](O)[C@H](O)[C@H]6O)CC[C@@]56C[C@@]46CC[C@]23C)O1 [Compound B2, Astragaloside IV] = > 100 µM
